Target: T1, native membrane bound porcine CD163 on primary porcine alveolar macrophages (porcine, UniProt Q2VL90 47-1115)
T1 construct: also called PAM CD163-WT; pPAM
T1 sequence: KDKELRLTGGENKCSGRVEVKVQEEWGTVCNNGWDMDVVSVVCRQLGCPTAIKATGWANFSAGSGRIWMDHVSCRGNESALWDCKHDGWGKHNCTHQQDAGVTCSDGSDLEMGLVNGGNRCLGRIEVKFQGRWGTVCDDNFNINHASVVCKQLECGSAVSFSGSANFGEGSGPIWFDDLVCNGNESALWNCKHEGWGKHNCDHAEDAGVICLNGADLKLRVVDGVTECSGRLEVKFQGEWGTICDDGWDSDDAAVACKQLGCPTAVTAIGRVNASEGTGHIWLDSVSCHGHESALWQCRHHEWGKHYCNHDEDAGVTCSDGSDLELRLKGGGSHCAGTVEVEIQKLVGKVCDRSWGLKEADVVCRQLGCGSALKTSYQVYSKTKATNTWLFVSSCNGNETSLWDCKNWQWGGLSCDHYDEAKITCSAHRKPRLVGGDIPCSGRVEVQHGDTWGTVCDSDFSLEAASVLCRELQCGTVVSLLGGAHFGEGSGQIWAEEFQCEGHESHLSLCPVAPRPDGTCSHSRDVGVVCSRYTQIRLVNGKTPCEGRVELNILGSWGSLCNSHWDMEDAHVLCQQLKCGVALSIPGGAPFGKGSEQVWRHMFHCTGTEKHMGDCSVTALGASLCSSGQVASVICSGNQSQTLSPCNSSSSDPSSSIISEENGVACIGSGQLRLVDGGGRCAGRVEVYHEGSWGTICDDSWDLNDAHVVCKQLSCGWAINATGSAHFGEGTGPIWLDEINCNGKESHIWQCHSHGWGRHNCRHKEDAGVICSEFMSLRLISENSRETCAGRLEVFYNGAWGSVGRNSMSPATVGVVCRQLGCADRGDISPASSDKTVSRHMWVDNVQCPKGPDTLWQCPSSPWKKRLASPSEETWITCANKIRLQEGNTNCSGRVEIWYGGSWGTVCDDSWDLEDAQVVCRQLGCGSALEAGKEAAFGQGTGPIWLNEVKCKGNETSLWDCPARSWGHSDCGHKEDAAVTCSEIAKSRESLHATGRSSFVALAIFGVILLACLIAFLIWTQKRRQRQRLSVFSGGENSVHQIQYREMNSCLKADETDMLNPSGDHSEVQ
Experiment: flow cytometry, PAM CD163-WT, RT
log10 of MFI values, listed per item
In plain terms, each number is the log10 of measured MFI in MFI.

Study these solved cases before continuing.
Answer with the recorded log10 of MFI of VHH 023 (4E10) (VHH, Llama single domain antibody; also called 70(#23); VHCDR3 70(#23); not shown: tags: c-myc tag in periplasmic extract (ELISA, FACS); FLAG and His tags in purified VHH (SPR, infection assays)) VHH: QVQLVESGGGLVQAGGSLRLSCVASSRTSSTYAMGWFRQGPGKERDFVAIISFGGTFYADSVKGRFTISRDNAKNTVYLQMNSLKPEDTAVYYCAAGRTLSKRADSYASWGQGTQVTVSS only.
2.93

Answer with the recorded log10 of MFI of VHH 015 (2G01) (VHH, Llama single domain antibody; also called 150(#15); VHCDR3 150(#15); not shown: tags: c-myc tag in periplasmic extract (ELISA, FACS); FLAG and His tags in purified VHH (SPR, infection assays)) VHH: QVQLVESGGGLVQAGDTLRLSCTASGRTFSSYSMGWFRQAPGKEREFVAAITWNGYITNYADSVKGRFTISRDNTKNTVFLQMNSLKPEETAVYYCAATTFSTTSPISRTYNYWGPGTQVTVSS only.
3.22

Answer with the recorded log10 of MFI of VHH 001 (1B02) (VHH, Llama single domain antibody; also called 144(#1); VHCDR3 144(#1); not shown: tags: c-myc tag in periplasmic extract (ELISA, FACS); FLAG and His tags in purified VHH (SPR, infection assays)) VHH: EVQLVESGGGLVQAGGSLSLSCAASGGTLAMYAMSWFRQAPGKDRKFVAAINTSGRYSRYADSVKGRFTISRDNAKNTATLQMNSLEPEDTAVYYCAATDKGNWALAMSYDYWGQGTQVTVSS only.
2.86

Answer with the recorded log10 of MFI of VHH 019 (3E11) (VHH, Llama single domain antibody; also called 47(#19); VHCDR3 47(#19); not shown: tags: c-myc tag in periplasmic extract (ELISA, FACS); FLAG and His tags in purified VHH (SPR, infection assays)) VHH: QVQLQESGGGLVQVGSSLRLSCVTSGRTPSRYVMGWFRQAPGQEREFVAAISWSGRAPYADSVKGRFTISRDNAKNTVYLQMNSLKPEDTGVYYCAGGEGAIKWTTLDAYDYWGQGTQVTVSS only.
3.60

Answer with the recorded log10 of MFI of VHH 011 (2B06) (VHH, Llama single domain antibody; also called 57(#11); VHCDR3 57(#11); not shown: tags: c-myc tag in periplasmic extract (ELISA, FACS); FLAG and His tags in purified VHH (SPR, infection assays)) VHH: EVQLVESGGGLVQAGGSLRLSCAASGRTLSVYGTGWFRQAPGKEREFVAGISGTTGSTLYADSVKGRFTISRDNAKNTVYLQMNSLKSEDTALYYCAAGGRVYITTSSWAYWGQGTQVTVSS only.
2.99

Answer with the recorded log10 of MFI of VHH 018 (3E01) (VHH, Llama single domain antibody; also called 49(#18); VHCDR3 49(#18); not shown: tags: c-myc tag in periplasmic extract (ELISA, FACS); FLAG and His tags in purified VHH (SPR, infection assays)) VHH: QVQLQESGGGLVQVGGSLRLSCVASGRAPSRYVMGWFRQAPGQEREFVAGIAWSGRAPYADSVKGRSTISRDNAKNTVYLQMNSLKPEDTGVYYCAGGEGAIRWTTLDAYDYWGQGTQVTVSS only.
2.96

Answer with the recorded log10 of MFI of VHH 012 (2C07) (VHH, Llama single domain antibody; also called 41(#12); VHCDR3 41(#12); not shown: tags: c-myc tag in periplasmic extract (ELISA, FACS); FLAG and His tags in purified VHH (SPR, infection assays)) VHH: QLQLVESGGGLVQAGGSLRLSCVASGRTFSRYAMGWFRQAPGKEREFVAAIAWSTGSTYYANSVKGRFAISGDNAKNTVYLQMNSLKPEDTAVYYCAAETRYCSGFGCLDPRTYGSWGQGTQVTVSS only.
4.25

Answer with the recorded log10 of MFI of VHH 016 (2H11) (VHH, Llama single domain antibody; also called 77(#16); VHCDR3 77(#16); not shown: tags: c-myc tag in periplasmic extract (ELISA, FACS); FLAG and His tags in purified VHH (SPR, infection assays)) VHH: EVQLVESGGGLVQAGGSLRLSCAASGRTFAPGSMGWFRQAPGKEREFVAAHRWSGSAYYADYADSVEGRFTISRDYAKNMVYLQMNSLKPGDTAVYYCAAGVGSAAQYTYWGRGTQVTVSS only.
2.97

Answer with the recorded log10 of MFI of VHH 008 (1H01) (VHH, Llama single domain antibody; also called 78(#8); VHCDR3 78(#8); not shown: tags: c-myc tag in periplasmic extract (ELISA, FACS); FLAG and His tags in purified VHH (SPR, infection assays)) VHH: QVQLVESGGGLVQAGGSLRLSCAASGRTFGTYSMGWFRQAPGKEREFVAAHRWSGSAYYAEHADSVEGRFTISRDYAKNMLYLQMNSLKHEDTAVYYCAAGVGSEAQYRYWGRGTQVTVSS only.
2.98

Answer with the recorded log10 of MFI of VHH 020 (3H11) (VHH, Llama single domain antibody; also called 48(#20); VHCDR3 48(#20); not shown: tags: c-myc tag in periplasmic extract (ELISA, FACS); FLAG and His tags in purified VHH (SPR, infection assays)) VHH: QVQLQESGGGLVQVGGSLRLSCVASGRTPSRYVMGWFRQAPGQEREFVAGIAWSGRAPYADSVKGRFVISRDSAKNTVYLQMNSLKSEDTGVYYCAGGEGAILWTTPGAYNYWGQGTQVTVSS only.
3.96

Further cases:
Answer with the recorded log10 of MFI of VHH 002 (1B04) (VHH, Llama single domain antibody; also called 76(#2); VHCDR3 76(#2); not shown: tags: c-myc tag in periplasmic extract (ELISA, FACS); FLAG and His tags in purified VHH (SPR, infection assays)) VHH: QVQLVESGGGLVQAGGSLRLSCAASGLTFVTYSMGWFRQAPGKEREFVAAHRWSGSAYYAEHADSVEGRFTISRDYAKNMLYLQMNSLKHEDTAVYYCAAGVGSAAQYRYWGRGTQVTVSS only.
2.95

Answer with the recorded log10 of MFI of VHH 017 (3D03) (VHH, Llama single domain antibody; also called 29(#17); VHCDR3 29(#17); not shown: tags: c-myc tag in periplasmic extract (ELISA, FACS); FLAG and His tags in purified VHH (SPR, infection assays)) VHH: QLQLVESGGGLVQPGGSLRLSCAASGFTLDDYTIGWFRQAPGKEREGVSCINSITSNTYYADSVKGRFTISRDNAKNTVYLQMNSLTAEDTAIYYCAADSGLFSGSSCLKYRAMRFGSWGQGTQVTVSS only.
3.36

Origin of values: patent US20230203185A1
